Test system: SF-268 CNS
Test: NCI tumour cell line growth inhibition, 48 h
Each item that follows carries a reported TGI.
Report only the number, with the unit µM understood.

Examples with their reported TGI follow.
>>> df
                              record_smiles  parameter_measured  reading
0  CCN(CC)CCCCNc1ncc2cc(-c3cc(OC)cc(OC)c3)c(NC(=O)NC(C)(C)C)nc2n1                 TGI     21.1
1  Cc1ccc(NC2=C(Cl)C(=O)N(Cc3ccccc3)C2=O)cc1Cl                 TGI     15.1

Lab note: measured TGI of Cc1ccc(C(=O)C#Cc2c[nH]c(=O)[nH]c2=O)cc1 was 26.2

---

Each item that follows carries a reported TGI.
Test system: NCI-H23 lung
Test: NCI tumour cell line growth inhibition, 48 h

Examples with their reported TGI follow.
>>> df
                                   molecule   measured_on   reading
0  CCC12CC(c3ccccc3)C(C(=O)N1)C(=O)N2 (stereo unspecified)  NCI-H23 lung  > 100 µM
1  COC(=O)C(Cc1c(C2Nc3ccccc3C2CC(NC(C)=O)C(=O)OC)[nH]c2ccccc12)NC(C)=O (stereo unspecified)  NCI-H23 lung  > 100 µM
2  Cn1ccnc1C(=O)/C=C/c1ccc(CC(=O)Nc2ccc(F)cc2)cc1  NCI-H23 lung   8.56 µM

Lab note: measured TGI of C/C=N\n1c(C)c(C#N)c(C#N)c1N was > 100 µM

Lab note: measured TGI of COc1ccc(OC)c(/C=C2\COc3ccc(O)c(O)c3C2=O)c1 was 7.3 µM

Lab note: measured TGI of COc1ccccc1C(N)c1ccccc1 (stereo unspecified) was > 100 µM

Lab note: measured TGI of S=C(c1ccc2c(c1)OCO2)N1CCN(c2cccc(Cl)c2)CC1 was > 100 µM

Lab note: measured TGI of Cc1c(NC(=O)c2cc([N+](=O)[O-])cc([N+](=O)[O-])c2)c(=O)n(-c2ccccc2)n1C was > 100 µM

Lab note: measured TGI of CC1(C)CCCCCCC2CC2CCCCCC(C)(C)C1=O (stereo unspecified) was > 100 µM

Lab note: measured TGI of CC[C@@H]1CC[C@@H]2[C@H](CC[C@]3(C)[C@@H](O)CC[C@@H]23)[C@H]1CO was > 100 µM

Lab note: measured TGI of CN(C)[C@H]1CC[C@H]2[C@@H]3CCC4C[C@@H](NC(=O)NC(Cc5ccccc5)c5nccs5)CC[C@]4(C)[C@H]3CC[C@]12C (stereo partly specified) was 3.89 µM

---

Tested on: UACC-257 melanoma
Test: NCI tumour cell line growth inhibition, 48 h
parameter.measured: TGI

Examples with their reported TGI follow.
In [3]: df
Out[3]:
                                   compound        measured_on  parameter_measured   reading
0  CCOC(=O)N/N=C(\Cc1ccc([N+](=O)[O-])cc1)OCC  UACC-257 melanoma                 TGI  > 100 µM
1  CCOC(=O)N[C@@H]1C2CC(=O)C(O2)[C@@H]1OC (stereo partly specified)  UACC-257 melanoma                 TGI  > 100 µM
2  Nc1ncnc2c1ncn2C1C=CC(COS(N)(=O)=O)C1 (stereo unspecified)  UACC-257 melanoma                 TGI  > 100 µM

Lab note: measured TGI of C=C(Br)C(C)(Br)CCC(Br)C(C)(C)Br (stereo unspecified) was > 100 µM

Lab note: measured TGI of COC(=O)c1cc(C)ccc1C1CN=NC12Cc1cccc(C)c1C2=O (stereo unspecified) was > 100 µM

Lab note: measured TGI of CCn1c(-c2nonc2N)nc2cncc(C(=O)NCCNC)c21 was > 25 µM

Where do the numbers come from? From PubChem BioAssay (NCI).
